- EXPERIMENTAL TARGET: T1, 4H3855-AA
- T1 chain: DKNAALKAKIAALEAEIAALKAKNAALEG
- TEST SUMMARY: two-hybrid library CCmax;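 further: natural log of median RNA to DNA barcode read ratio; higher means stronger binding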
- DETAILS: mean of both orientations
PROPERTY NAME: interaction score

Example binders with recorded interaction score:
INSERT INTO assay_data (binder, reading) VALUES
  ('DKIAALEAKNAALEAEIAALKAEIAALKG [4H2442-AA]', -1.56),
  ('DKNAALEAKIAALEAENAALKAEIAALKG [4H3354-AA]', -1.85),
  ('DKNAALEAEIAALEAKIAALEAKNAALKG [4H3112-AA]', -0.622),
  ('DENAALEAKNAALEAKIAALEAKIAALKG [4H1446-AA]', -0.445);

[P] DKNAALEAKIAALKAKIAALEAENAALEG [4H3427-AA]
[Q] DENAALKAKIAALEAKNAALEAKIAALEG [4H1845-AA]
[R] DKNAALKAENAALKAEIAALEAKIAALKG [4H3782-AA]
[S] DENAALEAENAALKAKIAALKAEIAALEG [4H1257-AA]
Task for the reader: rank each entry by its interaction score, from the minimum upward. Answer format: the labels, in the requested order.
Q, P, R, S

Entry source: paper PMC10397247
